Molecular target: KRAS G12C::SOS1 (Homo sapiens)
Construct: purchased CISBIO 64KRASG12PEH
Sequence (Q07889 whole entry, stated change not applied): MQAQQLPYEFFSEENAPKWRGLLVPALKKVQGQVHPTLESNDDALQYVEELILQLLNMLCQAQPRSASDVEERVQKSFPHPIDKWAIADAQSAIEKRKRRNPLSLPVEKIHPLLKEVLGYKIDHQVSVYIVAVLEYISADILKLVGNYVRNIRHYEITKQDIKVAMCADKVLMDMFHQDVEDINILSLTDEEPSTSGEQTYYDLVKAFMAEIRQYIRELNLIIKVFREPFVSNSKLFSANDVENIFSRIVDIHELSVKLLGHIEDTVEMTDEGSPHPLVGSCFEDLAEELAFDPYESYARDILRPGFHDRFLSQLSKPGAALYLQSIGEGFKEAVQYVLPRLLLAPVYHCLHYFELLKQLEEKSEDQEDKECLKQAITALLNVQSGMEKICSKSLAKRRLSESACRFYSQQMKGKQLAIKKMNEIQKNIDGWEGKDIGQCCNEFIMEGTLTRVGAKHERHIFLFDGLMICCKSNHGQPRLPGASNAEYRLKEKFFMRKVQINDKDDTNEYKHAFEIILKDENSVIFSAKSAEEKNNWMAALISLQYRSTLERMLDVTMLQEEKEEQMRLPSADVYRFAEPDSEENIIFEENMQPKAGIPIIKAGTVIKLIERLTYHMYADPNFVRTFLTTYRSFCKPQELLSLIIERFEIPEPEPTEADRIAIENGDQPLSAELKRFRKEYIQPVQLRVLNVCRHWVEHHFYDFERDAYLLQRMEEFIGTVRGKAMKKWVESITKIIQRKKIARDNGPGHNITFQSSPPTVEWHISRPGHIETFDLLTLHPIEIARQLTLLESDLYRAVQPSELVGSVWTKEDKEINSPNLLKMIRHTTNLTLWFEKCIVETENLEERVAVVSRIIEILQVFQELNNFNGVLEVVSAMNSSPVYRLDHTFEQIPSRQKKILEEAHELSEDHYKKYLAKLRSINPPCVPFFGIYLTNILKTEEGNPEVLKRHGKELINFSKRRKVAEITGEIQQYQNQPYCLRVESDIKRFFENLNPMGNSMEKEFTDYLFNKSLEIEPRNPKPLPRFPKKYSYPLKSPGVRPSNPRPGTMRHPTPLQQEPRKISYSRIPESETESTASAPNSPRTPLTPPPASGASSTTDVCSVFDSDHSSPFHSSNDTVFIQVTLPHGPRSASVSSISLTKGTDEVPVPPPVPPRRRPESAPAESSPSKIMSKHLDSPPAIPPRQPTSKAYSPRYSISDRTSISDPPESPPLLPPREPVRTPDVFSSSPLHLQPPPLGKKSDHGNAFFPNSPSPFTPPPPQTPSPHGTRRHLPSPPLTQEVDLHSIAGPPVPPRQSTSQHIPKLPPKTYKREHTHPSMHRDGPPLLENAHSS
Assay: KRAS G12C::SOS1 protein-protein interaction (PPI) inhibition assay (HTRF)
Format: binding
Conditions: 8 concentrations from 3 µM, three replicates; read-out: KRAS G12C::SOS1 PPI
measured_endpoint: IC50

Some molecules with recorded IC50:
>>> experimental_result("CCn1nncc1-c1cncc(-n2nc(C(=O)N[C@H](C)c3cccc(C(F)(F)CO)c3F)ccc2=O)c1 [Example 1-18]")
"< 50 nM"
>>> experimental_result("Cc1cc(C(=O)N[C@H](C)c2cccc(C(F)(F)CO)c2F)nn(-c2cncc(-c3cnnn3C(C)C)c2)c1=O [Example 1-39]")
"< 50 nM"

As a next step, examine the molecule that follows.
Data request: Entry under review: C[C@@H](NC(=O)c1cc(C(C)(C)O)c(=O)n(-c2cncc(-c3cnnn3C)c2)n1)c1cccc(C(F)(F)F)c1F [Example 1-59] . Reported IC50?
Data returned: 50 to 150 nM
